ASSAY TARGET: MAGI3_2, Q5TCQ9
Sequence (Q5TCQ9 398-503): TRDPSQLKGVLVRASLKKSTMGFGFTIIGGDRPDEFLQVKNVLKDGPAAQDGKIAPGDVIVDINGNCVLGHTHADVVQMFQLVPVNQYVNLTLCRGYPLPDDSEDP
ASSAY DETAILS: holdup assay
Parameters: key: below the threshold = too weak to quantify, mostly under pKd 3.1 to 4
RECORDED CONDITIONS: plain residues with an end cap or a label only (N-terminal biotin on a linker: ado-ado)
READOUT NAME: pKd

Field: example entries. Status: answers known.
| BINDER | RESULT |
| --- | --- |
| EALLQMESVA [CAVIN3, Q969G5] | below the threshold |
| GSGAVEMESV [AQP6, Q13520] | below the threshold |
| VDSTVKVWTC [TRAF7, Q6Q0C0] | below the threshold |
| VYPNAKVELV [PDLIM4_iso2, P50479;P50479-1] | below the threshold |
| DTTVPESEDL [MYOZ2, Q9NPC6] | below the threshold |

Kindly note the recorded pKd for DDPSTAETVL [ABCA7, Q8IZY2] , which is below the threshold
